B1: VH:VL chains; a variant is named by its letters at X, in order (parent)
chain 1: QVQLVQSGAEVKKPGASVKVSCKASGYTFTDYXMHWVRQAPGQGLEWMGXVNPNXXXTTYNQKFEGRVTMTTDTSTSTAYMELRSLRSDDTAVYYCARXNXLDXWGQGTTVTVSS
chain 2: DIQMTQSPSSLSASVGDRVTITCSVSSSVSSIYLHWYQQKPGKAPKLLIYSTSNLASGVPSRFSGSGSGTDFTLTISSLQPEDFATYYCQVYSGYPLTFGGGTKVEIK

variants of: B1; experiment: yeast display scFab, FACS + sequencing
result-type: non-specific binding call

| alteration | value-observed |
| --- | --- |
| YTRGASSS | no binding |
| VGEGGDAY | no binding |
| YKARGSWD | binds |
| YKGRGYGD | binds |
| VKGRTSVY | no binding |
| SEARSALV | no binding |
| VKRRSSLA | binds |
| YRGGDAAF | no binding |
| YRRGSSVF | binds |
| FKRGSSSY | binds |
| VTEGGSVD | binds |
